biological target: Cannabinoid receptor 1 (Homo sapiens); test: Displacement of [3H]CP55940 from human CB1R in HEK293 cell membranes at 10 uM after 60 mins liquid scintillation analysis relative to control
Sequence (P21554 whole entry): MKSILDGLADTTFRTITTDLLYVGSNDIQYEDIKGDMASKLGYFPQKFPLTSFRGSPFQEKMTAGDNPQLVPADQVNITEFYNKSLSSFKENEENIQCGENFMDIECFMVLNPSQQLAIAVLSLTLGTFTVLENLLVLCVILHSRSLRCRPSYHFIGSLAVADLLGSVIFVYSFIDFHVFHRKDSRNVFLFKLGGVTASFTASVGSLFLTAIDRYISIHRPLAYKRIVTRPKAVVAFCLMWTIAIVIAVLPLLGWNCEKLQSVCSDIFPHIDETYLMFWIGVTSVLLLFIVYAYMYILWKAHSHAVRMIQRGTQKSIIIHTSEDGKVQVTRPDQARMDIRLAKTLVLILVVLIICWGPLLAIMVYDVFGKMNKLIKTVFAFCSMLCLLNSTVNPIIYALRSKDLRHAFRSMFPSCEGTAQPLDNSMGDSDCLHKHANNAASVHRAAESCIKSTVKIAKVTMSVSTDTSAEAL
quantity kind: inhibition (%)

- compound string: "CC(=O)N[C@@H](CCCCNC(=O)COCCOCCNC(=O)c1nn(-c2ccc(Cl)cc2Cl)c(-c2ccc(Cl)cc2)c1C)C(=O)NCCCC[C@H](NC(C)=O)C(=O)NCCCCCCNC(=O)c1nn(-c2ccc(Cl)cc2Cl)c(-c2ccc(Cl)cc2)c1C"
  observed: 23

a = CC(=O)NCCCCCC(=O)NCc1ccc(C(=O)NCCCCCC(=O)NCCCCCCNC(=O)c2nn(-c3ccc(Cl)cc3Cl)c(-c3ccc(Cl)cc3)c2C)cc1
b = CC(=O)NCCOCCOCC(=O)NCCCC[C@H](NC(C)=O)C(=O)NCCCC[C@H](NC(C)=O)C(=O)NCCCCCCNC(=O)c1nn(-c2ccc(Cl)cc2Cl)c(-c2ccc(Cl)cc2)c1C
Req: Lab log: flag the item ( a or b ) with the smaller inhibition figure. Answer format: the label of the selected item.
Resp: a
(a: 23%, b: 37%)
